Value source: PubChem BioAssay (NCI)

Provide the recorded growth inhibition for the entries that follow.
- Measurement Description: NCI Yeast Anticancer Drug Screen. Data for the mgt1 strain (AID 153)
- Recorded Conditions: S. cerevisiae mgt1 mutant growth inhibition; at 11.0 µM; stronger effect = higher value
Compounds without any hit were thinned out: in the full panel of roughly 79,000, 15% have a hit.
One number for each entry, in %.

Worked set:
• CC(C)NC(=O)OCc1c(COC(=O)NC(C)C)c(-c2ccc(Cl)c(Cl)c2)n2c1CCC2 = -59
• O=C1c2ccccc2-c2n[nH]c3cccc1c23 = -10
• O=C(O)c1ccccc1NC(=S)c1ccccc1 = -3
• CC/C(=C(\c1ccccc1)c1ccc(OCCN(C)C)cc1)c1ccccc1 = 94
• CCNc1nnc(CSc2nc(-c3ccccc3)c(-c3ccccc3)[nH]2)s1 = -18

Required: growth inhibition, one value per molecule below.
1. CN(CCc1ccccn1)c1ccc2c(c1)Cc1ccccc1-2
2. CCN(CC)C(C)(C)C(=O)/C=C/c1ccccc1
3. COc1ccc(N=C2C(=O)Nc3ccc(Br)cc32)cc1

Solution:
[1, -3, -5]
